# assay info: Pharmacokinetics of FM05 hydrochloride salt, oral
# Assay type: in vivo, Balb/c mice
# settings: male, Balb/c, mouse, plasma; oral, 42 mg/kg, saline
quantity name: Tmax (h)
API: value field is a number in h; no unit string.

Suppose we examine the molecule `O=c1cc(-c2ccc(OCCC3CCN(Cc4ccncc4)CC3)cc2)oc2ccccc12` ; what Tmax value has been reported? 2

###

Listing of recorded pIC50 by entry.
# System: L. amazonensis LV78 promastigotes
# assay info: Anti-promastigote activity (MTS assay), L. amazonensis LV78
# Assay type: cell-based
# settings: Leishmania amazonensis, 72 hours
pIC50 field: float, defined as -log10 of concentration (mol/L).

Worked cases, pIC50 given:
- compound: "CN(CCOc1ccc(-c2cc(=O)c3ccccc3o2)cc1)CCN(C)Cc1ccncc1"
  assayed system: "L. amazonensis LV78 promastigotes"
  pIC50: 5.34
- compound: "O=c1cc(-c2ccc(OCCOCCN(Cc3ccc4ccccc4n3)Cc3ccc4ccccc4n3)cc2)oc2ccccc12 [FM09l]"
  assayed system: "L. amazonensis LV78 promastigotes"
  pIC50: 5.35

Which pIC50 is reported for this compound? O=c1cc(-c2ccc(OCCOCCNC(c3ccccn3)c3ccccn3)cc2)oc2ccccc12 [FM09p] 5.55

Try COc1ccnc(CN(CCOCCOc2ccc(-c3cc(=O)c4ccccc4o3)cc2)Cc2nccc(OC)c2OC)c1OC [FM09a] next. 6.49

Moving on to `O=C(COc1ccc(-c2cc(=O)c3ccccc3o2)cc1)N1CCCN(Cc2ccncc2)CC1` 5.32

What would you report for O=c1cc(-c2ccc(OCCOCCN(Cc3ncccc3Cl)Cc3ncccc3Cl)cc2)oc2ccccc12 [FM09g] ? 4.55

Continue with CCCCCCCCCCCCCCCCOP(=O)([O-])OCC[N+](C)(C)C [Miltefosine, reference compound] 4.49

Record: O=c1cc(-c2ccc(OCCN3CCN(Cc4ccccn4)CC3)cc2)oc2ccccc12 [FM01a] 4.93

Also `O=c1cc(-c2ccc(OCCOCCN(CCOCCO)Cc3ccncc3)cc2)oc2ccccc12` , if possible. 4.32

Now give it for `O=c1cc(-c2ccc(OCCN3CCCN(Cc4ccncc4)CC3)cc2)oc2ccccc12` too. 5.85
